Entries below carry reported LPS % cell toxicity on primary rat microglia.

>  <Compound>
Cc1cc(CC(C)CC(C)(C)C)n(O)c(=O)c1.NCCO (stereo not drawn)

>  <LPS % cell toxicity [%]>
1

$$$$
>  <Compound>
C1CCc2nnnn2CC1

>  <LPS % cell toxicity [%]>
1

$$$$
>  <Compound>
O=C([O-])C[C@H](O)C[C@H](O)/C=C/c1c(C2CC2)nc2ccccc2c1-c1ccc(F)cc1.O=C([O-])C[C@H](O)C[C@H](O)/C=C/c1c(C2CC2)nc2ccccc2c1-c1ccc(F)cc1.[Ca+2] [Pitavastatin calcium, reference compound]

>  <LPS % cell toxicity [%]>
1

$$$$
>  <Compound>
C[C@H](CCC(=O)[O-])[C@H]1CC[C@H]2[C@@H]3C(=O)C[C@@H]4CC(=O)CC[C@]4(C)[C@H]3CC(=O)[C@]12C.[Na+]

>  <LPS % cell toxicity [%]>
1

$$$$
>  <Compound>
N[C@@H]1C[C@H]1c1ccccc1 (racemic)

>  <LPS % cell toxicity [%]>
0

$$$$
>  <Compound>
O=C(O)c1cc(O)c2c(c1)[C@H]([C@H]1c3cc(C(=O)O)cc(O)c3C(=O)c3c(O[C@@H]4O[C@H](CO)[C@@H](O)[C@H](O)[C@H]4O)cccc31)c1cccc(O[C@@H]3O[C@H](CO)[C@@H](O)[C@H](O)[C@H]3O)c1C2=O [Sennoside A]

>  <LPS % cell toxicity [%]>
0

$$$$
